Test system: RPMI 8226
Assay: Human tumour cell line panel, leukemic RPMI 8226
Type: cell-based
Settings: Homo sapiens, RPMI-8226, 48 h; read-out: Leukemic cells, IC50(μM) RPMI 8226
The entries below are paired with their reported IC50.
Answer in µM, number only, no unit symbol.

Data point: Cl.O=C1C(=Cc2ccc(Cl)cc2)CN(C(=O)c2ccc(OCCN3CCCCC3)cc2)CC1=Cc1ccc(Cl)cc1 [Compound 5b, hydrochloride] ; IC50 = 0.759

Data point: O=c1[nH]cc(F)c(=O)[nH]1 [5-Fluorouracil, 5-fluorouracil, reference compound] ; IC50 = 3.55

---

The entries below are paired with their reported CC50.
Test system: human squamous cell carcinomas HSC-2
Assay: Cytotoxicity CC50, MTT assay, HSC-2
Answer in µM, number only, no unit symbol.

>  <compound>
Cc1ccc(C=C2CN(C(=O)c3ccc(OCCN4CCCCC4)cc3)CC(=Cc3ccc(C)cc3)C2=O)cc1.Cc1ccc(C=C2CN(C(=O)c3ccc(OCCN4CCCCC4)cc3)CC(=Cc3ccc(C)cc3)C2=O)cc1.Cl.Cl.O [Compound 5d, hydrochloride hemihydrate]

>  <CC50, µM>
2.9

$$$$

Data point: CC[N+](C)(CC)CCOc1ccc(C(=O)N2CC(=Cc3ccc(C)cc3)C(=O)C(=Cc3ccc(C)cc3)C2)cc1.[I-] ; CC50 = 17

---

System: HSC-2, HSC-4 and HL-60 malignant cells
Assay: Average CC50 for malignant cells
endpoint.label: CC50(μM) ave (µM)
Answer in µM, number only, no unit symbol.

// known answers, use as guide
>  <smiles.entry>
CC[N+](C)(CC)CCOc1ccc(C(=O)N2CC(=Cc3ccc([N+](=O)[O-])cc3)C(=O)C(=Cc3ccc([N+](=O)[O-])cc3)C2)cc1.[I-]

>  <assay.value>
52

$$$$
>  <smiles.entry>
O=C1C(=Cc2ccc(Cl)cc2)CNCC1=Cc1ccc(Cl)cc1

>  <assay.value>
20

$$$$
>  <smiles.entry>
O=C1C(=Cc2ccccc2)CNCC1=Cc1ccccc1

>  <assay.value>
2.7

$$$$

# input for lookup
Data point: Cl.O=C1C(=Cc2ccc(Cl)cc2)CN(C(=O)c2ccc(OCCN3CCOCC3)cc2)CC1=Cc1ccc(Cl)cc1 ; CC50(μM) ave = 42

---

System: murine L-5178 lymphoma cells transfected with the human MDR1 gene
Assay: MDR reversal, rhodamine 123 fluorescence activity ratio
Settings: compound 40 μg/ml, FAR >1 indicates MDR reversal
The entries below are paired with their reported FAR value 40 μg/ml.

// known answers, use as guide
>  <molecule>
CCN(CC)CCOc1ccc(C(=O)N2CC(=Cc3ccc([N+](=O)[O-])cc3)C(=O)C(=Cc3ccc([N+](=O)[O-])cc3)C2)cc1.Cl [Compound 4c]

>  <assay.value>
14.1

$$$$
>  <molecule>
CC[N+](C)(CC)CCOc1ccc(C(=O)N2CC(=Cc3ccc([N+](=O)[O-])cc3)C(=O)C(=Cc3ccc([N+](=O)[O-])cc3)C2)cc1.[I-] [Compound 7c]

>  <assay.value>
1.22

$$$$
>  <molecule>
CC[N+](C)(CC)CCOc1ccc(C(=O)N2CC(=Cc3ccc(Cl)cc3)C(=O)C(=Cc3ccc(Cl)cc3)C2)cc1.[I-] [Compound 7b]

>  <assay.value>
1.85

$$$$

Data point: O=C1C(=Cc2ccccc2)CNCC1=Cc1ccccc1 [Compound 1a] ; FAR value 40 μg/ml = 2.00

Data point: Cl.O=C1C(=Cc2ccc(Cl)cc2)CN(C(=O)c2ccc(OCCN3CCCCC3)cc2)CC1=Cc1ccc(Cl)cc1 [Compound 5b] ; FAR value 40 μg/ml = 133

Data point: CC[N+](C)(CC)CCOc1ccc(C(=O)N2CC(=Cc3ccccc3)C(=O)C(=Cc3ccccc3)C2)cc1.[I-] [Compound 7a] ; FAR value 40 μg/ml = 1.05

Data point: CCN(CC)CCOc1ccc(C(=O)N2CC(=Cc3ccc(Cl)cc3)C(=O)C(=Cc3ccc(Cl)cc3)C2)cc1.Cl [Compound 4b] ; FAR value 40 μg/ml = 99.7
